Tested on: Vero cells

# molecule, tgt, CC50
rows = [
    ("COC(=O)C(CSSC(=O)c1ccccc1)NC(=O)c1ccccc1 (stereo not shown) [XM-01]", "Vero cells", "~1000 µM"),
]
